Cited source: patent US6559102B1

- measurement.protocol: log P determination by HPLC, reversed-phase column (EEC Directive 79/831 Annex V.A8)
- Assay type: physicochemical
- condition.context: reversed-phase C 18, 43° C., acidic range: 0.1% aqueous phosphoric acid, acetonitrile, gradient 10% to 90% (data labelled a))
endpoint.label: log P

- COc1cccc(Oc2cc(-c3nn(C)c(OC(F)F)c3Cl)c(F)cc2C#N)c1OC [Example 124]: logP: 3.98^a)
- COc1cccc(Oc2cc(-c3nn(C)c(OC(F)F)c3Cl)c(F)cc2C#N)c1 [Example 60]: logP: 4.13^a)
- Cn1nc(-c2cc(Oc3ccc(F)cc3)c(C#N)cc2F)c(Cl)c1OC(F)F [Example 72]: logP: 4.13^a)
- COc1ccccc1Oc1cc(-c2nn(C)c(OC(F)F)c2Cl)c(F)cc1C#N [Example 59]: logP: 3.98^a)
